assay: Toxicity test: acute toxicity (LD50) in mice; conditions: mouse, in vivo, intravenous
Overview of reported LD50 across a group of compounds:
Reported property: LD50

>  <Compound structure>
CCCc1c(OCc2cccn3c(=O)c(CCC(=O)O)cnc23)ccc(C(C)=O)c1O

>  <Reported result>
≥ 100 mg/kg

$$$$
>  <Compound structure>
CCCc1c(OCc2cccn3c(=O)c(CC(=O)O)cnc23)ccc(C(C)=O)c1O

>  <Reported result>
≥ 100 mg/kg

$$$$

###

Overview of reported LD50 across a group of compounds:
test: Toxicity test: acute toxicity (LD50) in rats; settings: rat, in vivo, oral

>  <Compound>
CCCc1c(OCc2cccn3c(=O)c(CCC(=O)O)cnc23)ccc(C(C)=O)c1O [Example 4]

>  <LD50>
≥ 4000 mg/kg

$$$$
>  <Compound>
CCCc1c(OCc2cccn3c(=O)c(CC(=O)O)cnc23)ccc(C(C)=O)c1O [Example 2]

>  <LD50>
≥ 4000 mg/kg

$$$$
